Each entry below lists one item and its recorded Z score value.
Test system: Plasmodium falciparum
assay comment: Primary screen in NF54 nanoGlo assay, in single point, at 2uM, 72h; a lower Z score goes with more inhibition
Assay type: functional, Erythrocyte
assay conditions: timepoint 72 hour
Hit rate of the full screen: of about 150,000 compounds, about 540 (0.36%) showed an effect of 50% or more. The full list was thinned out, with strong results kept by preference.

molecule	Z score
O=C(CCc1ccccc1)N[C@H]1CC[C@H](Oc2ncc(F)cn2)CC1	1.77

Request: Data request, read-out Z score, for CC1CCCN(C(=O)C2CCC2)C1CN (stereo unspecified)
Result: 0.43

Request: Find the recorded Z score belonging to `CC(C)Cc1ccc(CN2CCN([C@H]3CCNC3)CC2)s1` and report it.
Result: 0.81

Request: Return reported Z score; argument: `O=C(N[C@H]1CCN(c2cnccn2)C[C@@H]1O)c1ccc2c(c1)OCO2`
Result: 0.01

Request: Which value of Z score has been reported for `COc1cc2c(cc1OC)CN(C(=O)c1ccc(N3CCOCC3)nc1)CC2` in the records?
Result: -0.32

Request: Param item = `Cc1nnc(OC2Cc3ccccc3C2)s1` ; retrieve measured Z score.
Result: 1.07
